Target: Human CB2R (Cannabanoid receptor 2) (Homo sapiens (Human), UniProt P34972)
Sequence (P34972 whole entry): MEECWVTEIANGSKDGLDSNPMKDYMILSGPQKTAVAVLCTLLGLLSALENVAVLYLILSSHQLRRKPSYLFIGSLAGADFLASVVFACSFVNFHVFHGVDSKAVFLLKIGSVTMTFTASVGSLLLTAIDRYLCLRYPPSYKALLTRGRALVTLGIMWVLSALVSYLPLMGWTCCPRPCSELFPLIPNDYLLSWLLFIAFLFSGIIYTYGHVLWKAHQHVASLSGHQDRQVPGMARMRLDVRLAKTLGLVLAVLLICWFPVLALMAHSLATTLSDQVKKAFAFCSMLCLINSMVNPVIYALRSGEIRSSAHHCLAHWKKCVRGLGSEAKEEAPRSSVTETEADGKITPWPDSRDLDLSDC
Assay: CB-2 in vitro cAMP (HTRF) assay in HEK-293 cells
Conditions: HEK-293 cells stably transfected with human CB2R, 250 nM Forskolin, mean where tested more than once, read-out: CB-2 (HEK_cAMP) EC50
Endpoint Label: EC50

Some compounds with recorded EC50:
Compound	EC50
O=C(O)c1cccc(S(=O)(=O)N2CCC(c3n[nH]c4ccc(C(c5ccc(Cl)cc5)c5ccc(Cl)cc5)cc34)CC2)c1 [Compound 61]	> 10 µM
O=C(NC1CCCC1)N1CCC(c2n[nH]c3ccc(C(c4ccc(Cl)cc4)c4ccc(Cl)cc4)cc23)CC1 [Compound 263]	2.33 µM
NC(=O)c1ccc(N2CCC(c3c4cc(C(c5ccc(Cl)cc5)c5ccc(Cl)cc5)ccc4nn3C3CC3)CC2)cc1 [Compound 194]	> 10 µM
O=C(CCO)N1CCC(c2nn(C3CC3)c3ccc(C(c4ccc(Cl)cc4)c4ccc(Cl)cc4)cc23)CC1 [Compound 108]	> 10 µM
O=S(=O)(N1CCN(c2nn(S(=O)(=O)C(F)(F)F)c3ccc(C(c4ccc(Cl)cc4)c4ccc(Cl)cc4)cc23)CC1)C(F)(F)F [Compound 29]	> 10 µM

Ask: Fill in: EC50 of COC(=O)c1ccc(CN2CCC(c3n[nH]c4ccc(C(c5ccc(Cl)cc5)c5ccc(Cl)cc5)cc34)CC2)cc1 [Compound 258] is ___
Result: > 42 µM

---

Target: Human CB1R (Cannabanoid receptor 1) (Homo sapiens (Human), UniProt P21554)
Sequence (P21554 whole entry): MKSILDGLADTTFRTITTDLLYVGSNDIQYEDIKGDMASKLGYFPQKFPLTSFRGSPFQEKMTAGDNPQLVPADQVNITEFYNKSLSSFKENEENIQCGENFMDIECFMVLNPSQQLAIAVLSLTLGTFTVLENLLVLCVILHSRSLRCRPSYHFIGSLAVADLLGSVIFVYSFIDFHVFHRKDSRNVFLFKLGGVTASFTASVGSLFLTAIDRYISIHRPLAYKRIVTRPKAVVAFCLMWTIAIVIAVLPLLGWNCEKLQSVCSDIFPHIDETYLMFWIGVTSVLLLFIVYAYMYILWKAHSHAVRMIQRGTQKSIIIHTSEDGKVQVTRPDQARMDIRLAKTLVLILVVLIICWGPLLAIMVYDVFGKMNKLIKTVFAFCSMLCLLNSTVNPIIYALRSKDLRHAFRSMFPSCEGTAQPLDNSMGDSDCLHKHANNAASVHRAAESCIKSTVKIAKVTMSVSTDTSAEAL
Assay: CB-1 in vitro cAMP (HTRF) assay in HEK-293 cells
Conditions: HEK-293 cells stably transfected with human CB1R, 250 nM Forskolin, mean where tested more than once, read-out: CB-1 (HEK_cAMP) EC50
Endpoint Label: pEC50
Numbers only, as −log10 of the molar value.

Look over these answered cases.
Compound	pEC50
O=C(O)c1ccc(-n2nc(C3CCN(S(=O)(=O)C(F)(F)F)CC3)c3cc(C(c4ccc(Cl)cc4)c4ccc(Cl)cc4)ccc32)cc1 [Compound 204]	7.72
O=C(O)c1ccc(S(=O)(=O)N2CCC(c3c4cc(C(c5ccc(Cl)cc5)c5ccc(Cl)cc5)ccc4nn3C3CC3)CC2)cc1Cl [Compound 161]	8.40
NC(=O)c1ccc(-n2nc(C3CCN(S(=O)(=O)C(F)(F)F)CC3)c3cc(C(c4ccc(Cl)cc4)c4ccc(Cl)cc4)ccc32)cc1 [Compound 205]	8.22
O=C(O)Cn1nc(C2CCN(S(=O)(=O)C(F)(F)F)CC2)c2cc(C(c3ccc(Cl)cc3)c3ccc(Cl)cc3)ccc21 [Compound 73]	6.12
O=S(=O)(c1ccccc1C(F)(F)F)N1CCC(c2n[nH]c3ccc(C(c4ccc(Cl)cc4)c4ccc(Cl)cc4)cc23)CC1 [Compound 33]	7.31
O=C(O)CCS(=O)(=O)N1CCC(c2nn(C3CC3)c3ccc(C(c4ccc(Cl)cc4)c4ccc(Cl)cc4)cc23)CC1 [Compound 109]	6.14
CC(=O)n1nc(N2CCN(S(=O)(=O)C(F)(F)F)CC2)c2cc(C(c3ccc(Cl)cc3)c3ccc(Cl)cc3)ccc21 [Compound 44]	7.85
O=C(O)c1ccccc1C(=O)N1CCC(c2nn(C3CC3)c3ccc(C(c4ccc(Cl)cc4)c4ccc(Cl)cc4)cc23)CC1 [Compound 103]	5.22

Kindly give each listed record's pEC50.
1. O=C(O)c1cccc(N2CCC(c3n[nH]c4ccc(C(c5ccc(Cl)cc5)c5ccc(Cl)cc5)cc34)CC2)c1 [Compound 212]
2. O=C(O)c1cccc(CN2CCC(c3nn(C4CC4)c4ccc(C(c5ccc(Cl)cc5)c5ccc(Cl)cc5)cc34)CC2)c1 [Compound 207]
3. NC(=O)c1ccc(C(=O)N2CCC(c3nn(C4CC4)c4ccc(C(c5ccc(Cl)cc5)c5ccc(Cl)cc5)cc34)CC2)cc1 [Compound 104]
4. O=C(O)c1cccc(CN2CCC(c3n[nH]c4ccc(C(c5ccc(Cl)cc5)c5ccc(Cl)cc5)cc34)CC2)c1 [Compound 225]

Result:
1: 5.74; 2: 8.05; 3: 8.15; 4: 7.25

Below is a list of compounds. For each, state its recorded pEC50.
1. CNC(=O)c1ccc(S(=O)(=O)N2CCC(c3c4cc(C(c5ccc(Cl)cc5)c5ccc(Cl)cc5)ccc4nn3C3CC3)CC2)cc1Cl [Compound 154]
2. NC(=O)c1cc(S(=O)(=O)N2CCC(c3c4cc(C(c5ccc(Cl)cc5)c5ccc(Cl)cc5)ccc4nn3C3CC3)CC2)ccc1F [Compound 163]

Result:
8.40
7.92

Ask: Need pEC50, item O=S(=O)(c1cccc(C(F)(F)F)c1)N1CCC(c2n[nH]c3ccc(C(c4ccc(Cl)cc4)c4ccc(Cl)cc4)cc23)CC1 [Compound 59]
Result: 6.43

Values were extracted from patent US9682940B2.
